- procedure text: Stability in PBS assessed as half life
- Format: physicochemical
For each record, write down the corresponding half-life.
Respond numerically; units are days and should not be typed.

[ask] Sample `NC(N)=NC(=O)NC[C@H](O)CO` — what was its half-life?
[reply] 19.6

[ask] Sample `NC(N)=NC(=O)NC[C@H]1COP(=O)(O)CO1` — what was its half-life?
[reply] 29.7

[ask] Sample `NC(N)=NC(=O)NCCOCP(=O)(O)O` — what was its half-life?
[reply] 39.3

[ask] Sample `NC(N)=NC(=O)NC[C@@H](COC=O)OCP(=O)(O)O` — what was its half-life?
[reply] 4.98

====

- procedure text: Stability in phosphate buffer at pH 4.0 assessed as half life
- Type: physicochemical
property label: half-life (days)
Respond numerically; units are days and should not be typed.

[ask] Sample `Nc1ncn(C[C@H](O)CO)c(=O)n1` — what was its half-life?
[reply] 17.8
